Target: AAK1 (full length human) in HEK293F cells (Homo sapiens, UniProt Q2M2I8)
Construct: fused on or other part: HA tag (AAK1/HA in pIRES vector)
Sequence (Q2M2I8 1-822 limits assumed): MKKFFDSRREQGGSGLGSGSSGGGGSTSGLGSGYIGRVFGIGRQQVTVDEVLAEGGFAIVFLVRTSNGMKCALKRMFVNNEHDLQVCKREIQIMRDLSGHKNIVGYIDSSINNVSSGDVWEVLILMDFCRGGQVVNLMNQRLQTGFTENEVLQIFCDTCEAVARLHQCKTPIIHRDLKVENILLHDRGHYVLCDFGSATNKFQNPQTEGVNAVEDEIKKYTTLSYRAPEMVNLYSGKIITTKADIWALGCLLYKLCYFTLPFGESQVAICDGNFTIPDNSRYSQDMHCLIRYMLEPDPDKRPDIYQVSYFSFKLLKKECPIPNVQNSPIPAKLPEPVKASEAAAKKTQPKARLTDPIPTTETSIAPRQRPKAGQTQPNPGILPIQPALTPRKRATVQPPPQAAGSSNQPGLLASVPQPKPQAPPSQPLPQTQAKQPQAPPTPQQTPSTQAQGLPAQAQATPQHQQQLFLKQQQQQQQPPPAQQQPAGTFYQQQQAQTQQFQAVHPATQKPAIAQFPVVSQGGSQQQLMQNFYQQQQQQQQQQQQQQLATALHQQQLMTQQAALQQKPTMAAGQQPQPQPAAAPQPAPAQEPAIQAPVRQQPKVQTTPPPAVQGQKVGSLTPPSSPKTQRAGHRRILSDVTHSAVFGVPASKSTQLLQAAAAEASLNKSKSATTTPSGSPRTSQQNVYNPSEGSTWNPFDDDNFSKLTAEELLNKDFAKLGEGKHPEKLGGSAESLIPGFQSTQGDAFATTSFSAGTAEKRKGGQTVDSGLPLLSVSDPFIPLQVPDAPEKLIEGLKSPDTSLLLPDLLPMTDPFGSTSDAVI
Test: HEK281 cell-based assay (phospho-mu2 Western blot in transfected HEK293F cells)
Settings: 3 hours, phospho-mu2, given as IC50 range
Protocol: On day one, cells were plated on a 10 cm dish so that they are ˜80% confluent at time oftransfection. Roughly 12 million cells were in a 10 cm dish at time of transfection. […] Finally, the camera was set up to take a picture every 30 seconds for 10 minutes and the best image saved for each blot with no saturated signal (when the signal is saturated, the bands will be highlighted red). […] IC50 values were then calculated using Excel fitting software.
pIC50: −log10 of the molar value.
Recorded pIC50, one value per entry.

Record excerpt, results attached:
>  <compound>
CC(C)C[C@H](N)COc1cc2[nH]c(=O)c3cnccc3c2cc1Br

>  <pIC50>
8.00 to 9.00

$$$$
>  <compound>
CC(C)NCC(O)COc1cc2c(cc1Br)c1ccncc1c(=O)n2C (centres unmarked)

>  <pIC50>
5.70 to 7.00

$$$$
>  <compound>
Cn1c(=O)c2cnccc2c2cc(Br)c(OCC(N)CC(F)(F)F)cc21 (centres unmarked)

>  <pIC50>
7.00 to 8.00

$$$$
>  <compound>
Cc1nccc2c1c(=O)n(C)c1cc(OC[C@@H](N)CC(C)C)c(Br)cc21

>  <pIC50>
8.00 to 9.00

$$$$

Then there is this compound:
Indicate the recorded pIC50 value for this compound: CNC(=O)Nc1nccc2c1c(=O)n(C)c1cc(OC[C@@H](N)CC(C)C)c(F)cc21
7.00 to 8.00

---

Molecular target: AAK1 (full length human) in HEK293F cells (Homo sapiens)
Construct: fused on or other part: HA tag (AAK1/HA in pIRES vector)
Assay: HEK281 cell-based assay (phospho-mu2 Western blot in transfected HEK293F cells)
Details: 3 hours, phospho-mu2 normalized to total Mu2
readoutKind: IC50 (nM)
Express your answer in nM, writing the number without its unit.

>  <molecule>
Cn1c(=O)c2cnccc2c2cc(C#N)c(OCC(N)CCC(F)(F)F)cc21 (centres unmarked) [Example 126]

>  <valueUnits>
nM

>  <observedResult>
56

$$$$

With those in mind, consider the next molecule.
Answer with the recorded IC50 of Cc1nccc2c1c(=O)n(C)c1cc(OC[C@H](N)CC(C)C)c(Br)cc21 [Example 133] only.
2.3

---

Target: AAK1 (full length human) in HEK293F cells (Homo sapiens)
Construct: fused on or other part: HA tag (AAK1/HA in pIRES vector)
Experiment: HEK281 cell-based assay (phospho-mu2 Western blot in transfected HEK293F cells)
Settings: 3 hours, phospho-mu2, given as IC50 range
readoutKind: IC50

>  <molecule>
Cc1nccc2c1c(=O)n(C)c1cc(OCC(N)CC(F)(F)F)c(Br)cc21 (single isomer, unassigned) [Example 139]

>  <IC50>
1 to 10 nM

$$$$
>  <molecule>
Cc1nccc2c1c(=O)n(C)c1cc(OC[C@@H](N)CC(C)C)c(C(C)C)cc21 [Example 129]

>  <IC50>
1 to 10 nM

$$$$
>  <molecule>
Cn1c(=O)c2cnccc2c2cc(-c3cnco3)c(OCC(N)CCC(F)(F)F)cc21 (centres unmarked) [Example 114]

>  <IC50>
10 to 100 nM

$$$$
>  <molecule>
Cc1cc2c(cc1OC[C@@H](N)CC(C)C)[nH]c(=O)c1cnccc12 [Example 109]

>  <IC50>
1 to 10 nM

$$$$
>  <molecule>
Cn1c(=O)c2c(N)nccc2c2ccc(OCC(N)CCC(F)(F)F)cc21 (centres unmarked) [Example 119]

>  <IC50>
1 to 10 nM

$$$$
>  <molecule>
Cn1c(=O)c2cnccc2c2cc(Br)c(OCC(N)CCC(F)(F)F)cc21 (centres unmarked) [Example 113]

>  <IC50>
1 to 10 nM

$$$$
>  <molecule>
Cn1c(=O)c2cnccc2c2cc(Cl)c(OCC(N)CCC(F)(F)F)cc21 (centres unmarked) [Example 116]

>  <IC50>
10 to 100 nM

$$$$
>  <molecule>
Cn1c(=O)c2cnccc2c2cc(Cl)c(OCC(N)CCC(F)(F)F)cc21 (centres unmarked) [Example 117]

>  <IC50>
1 to 10 nM

$$$$
>  <molecule>
Cc1nccc2c1c(=O)n(C)c1cc(OCC(N)CC(F)(F)F)c(Br)cc21 (single isomer, unassigned) [Example 138]

>  <IC50>
10 to 100 nM

$$$$
>  <molecule>
Cn1c(=O)c2cnccc2c2cc(Cl)c(OCC(N)CCC(F)(F)F)cc21 (centres unmarked) [Example 115]

>  <IC50>
1 to 10 nM

$$$$

Provide one value: measured IC50 of Cc1nccc2c1c(=O)n(CCO)c1cc(OC[C@@H](N)CC(C)C)c(Br)cc21 [Example 143]
1 to 10 nM

Please give measured IC50 of the following entry: Cn1c(=O)c2cnccc2c2cc(Cl)c(OCC(N)CC(F)(F)F)cc21 (centres unmarked) [Example 141]
10 to 100 nM

Look up and report measured IC50 for this entry: Cn1c(=O)c2c(N)nccc2c2ccc(OCC(N)CCC(F)(F)F)cc21 (centres unmarked) [Example 118]
10 to 100 nM
